Data provenance is paper PMC5540273.

Test system: BIKE;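 further: KINOMEscan kinase panel screen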
Construct: gene BMP2K
test.settings: concentration: 1 μM, replicates: in singlicate; n = 1
readout.label: %Inh (%)
One number for each entry, in %.

Observe how each entry below is paired with its result.
[
  {
    "molecule": "CCS(=O)(=O)c1ccc(OC)c(Nc2nccc(-c3c(-c4cccc(NC(=O)c5c(F)cccc5F)c4)nn4ncccc34)n2)c1",
    "%Inh [%]": 40
  },
  {
    "molecule": "COc1cc(Nc2nccc(-c3c(-c4cccc(NC(=O)c5c(F)cccc5F)c4)nn4ccccc34)n2)cc(OC)c1OC",
    "%Inh [%]": 21
  },
  {
    "molecule": "O=C(Nc1cccc(-c2nn3ccccc3c2-c2ccnc(Nc3cccc(F)c3)n2)c1)c1c(F)ccc(F)c1Cl",
    "%Inh [%]": 25
  }
]

Moving on to the next molecule.
%Inh recorded for this molecule, Cc1ccc(C)c(NC(=O)NC2CCN(c3ccnc(Nc4ccc(F)cc4)n3)C2)c1 (stereo not shown) , is 23
